Source of measurements: patent US8524766B2

I'd appreciate it if you could supply melting point values for the items below.
Counter-ions that a name gives are not always drawn.
Numbers only, in °C.

compound	scale_unit	melting point
CC(C)CNC[C@H]1COc2ccc(S(C)(=O)=O)cc2O1 (as salt: hydrochloric acid salt)	°C	214
CCCNC[C@H]1COc2c(F)cc(S(C)(=O)=O)cc2O1 (as salt: hydrochloric acid salt) [Example 21]	°C	226
CS(=O)(=O)c1ccc2c(c1)OC(CN1CCCCC1)CO2 (stereo not drawn) (as salt: hydrochloric acid salt)	°C	248
CS(=O)(=O)c1ccc2c(c1)OC(CN1CCCC1)CO2 (stereo not drawn) (as salt: hydrochloric acid salt)	°C	221

Record melting point per entry; entries follow.
1. CCCNC[C@@H]1COc2ccc(S(C)(=O)=O)cc2O1 (as salt: hydrochloric acid salt)
2. CCCN(CCC)CC1COc2ccc(S(C)(=O)=O)cc2O1 (stereo not drawn) (as salt: hydrochloric acid salt)

1. 228
2. 182

###

Structures can show the parent of a compound that is named as a salt.
I'd appreciate it if you could supply melting point values for the items below.
Answers are plain numbers, in °C.

compound	scale_unit	melting point
CCNCC1COc2c(F)cc(S(C)(=O)=O)cc2O1 (stereo not drawn) (as salt: hydrochloric acid salt) [Example 18]	°C	256

Record melting point per entry; entries follow.
1. CCNC[C@H]1COc2ccc(S(C)(=O)=O)cc2O1 (as salt: hydrochloric acid salt)
2. CNC[C@H]1COc2c(F)cc(S(C)(=O)=O)cc2O1 (as salt: hydrochloric acid salt)
3. CCCNC[C@H]1COc2ccc(S(=O)(=O)C(F)(F)F)cc2O1 (as salt: hydrochloric acid salt) [Example 24]
4. CS(=O)(=O)c1cc(F)c2c(c1)O[C@@H](CN1CCOCC1)CO2 (as salt: hydrochloric acid salt)
5. CCNC[C@H]1COc2ccc(S(C)(=O)=O)c(F)c2O1 (as salt: hydrochloric acid salt)
6. CNCC1COc2c(F)cc(S(C)(=O)=O)cc2O1 (stereo not drawn) (as salt: hydrochloric acid salt)
7. CC(C)(C)CNC[C@H]1COc2ccc(S(C)(=O)=O)cc2O1 (as salt: hydrochloric acid salt)

1. 271
2. 260
3. 175
4. 251
5. 270
6. 243
7. 242

Record melting point per entry; entries follow.
1. CNC[C@H]1COc2c(Cl)cc(S(C)(=O)=O)cc2O1 (as salt: hydrochloric acid salt)
2. CC(C)CNC[C@@H]1COc2ccc(S(C)(=O)=O)cc2O1 (as salt: hydrochloric acid salt)
3. CCCNC[C@H]1COc2ccc(S(C)(=O)=O)cc2O1 (as salt: hydrochloric acid salt) [Example 3]
4. CS(=O)(=O)c1ccc2c(c1)O[C@@H](CNCCC(F)(F)F)CO2 (as salt: hydrochloric acid salt)

[262, 213, 228, 204]

Record melting point per entry; entries follow.
1. CCNC[C@H]1COc2c(Cl)cc(S(C)(=O)=O)cc2O1 (as salt: hydrochloric acid salt)
2. CCNC[C@H]1COc2c(F)cc(S(C)(=O)=O)cc2O1 (as salt: hydrochloric acid salt) [Example 19]

[267, 274]

###

# Tested on: DOPAC (3,4-dihydroxyphenylacetic acid) in the rat striatum
# procedure_details: Increase of DOPAC in the rat striatum after systemic administration (in vivo neurochemistry)
# test_conditions: sc; estimated ED50 on increase of DOPAC in rat striatum, systemic administration (s.c.), curve fitting
I'd appreciate it if you could supply ED50 values for the items below.
Answers are plain numbers, in µmol/kg.

Record ED50 per entry; entries follow.
1. CCCNC[C@H]1COc2ccc(S(C)(=O)=O)cc2O1
2. CS(=O)(=O)c1ccc2c(c1)O[C@@H](CN1CCCCC1)CO2
3. CCCN(CCC)CC1COc2ccc(S(C)(=O)=O)cc2O1 (stereo not drawn)
4. CCCNC[C@H]1COc2c(F)cc(S(C)(=O)=O)cc2O1
5. CCCNC[C@@H]1COc2ccc(S(C)(=O)=O)cc2O1

6.1
12
29
6.8
47

###

I'd appreciate it if you could supply melting point values for the items below.
Where a name gives a salt, the structure may show the parent alone.
# answer = value followed by unit

compound	melting point
CS(=O)(=O)c1ccc2c(c1)O[C@H](CN1CCCCC1)CO2 (as salt: hydrochloric acid salt)	226 °C

Record melting point per entry; entries follow.
1. CS(=O)(=O)c1ccc2c(c1)O[C@@H](CN1CCCCC1)CO2 (as salt: hydrochloric acid salt)
2. CS(=O)(=O)c1cc(F)c2c(c1)O[C@@H](CNCCC(F)(F)F)CO2 (as salt: hydrochloric acid salt)
3. CCCNC[C@H]1COc2c(F)cc(S(C)(=O)=O)cc2O1 (as salt: hydrochloric acid salt) [Example 76]

227 °C
233 °C
192 °C

Record melting point per entry; entries follow.
1. CCNC[C@H]1COc2ccc(S(=O)(=O)C(F)(F)F)cc2O1 (as salt: hydrochloric acid salt)
2. CCCN(C)CC1COc2ccc(S(C)(=O)=O)cc2O1 (stereo not shown) (as salt: hydrochloric acid salt)
3. CCNCC1COc2ccc(S(C)(=O)=O)cc2O1 (stereo not shown) (as salt: hydrochloric acid salt)

["208 °C", "222 °C", "261 °C"]

###

# Tested on: drug-naive rats
# procedure_details: Locomotor activity in drug-naive rats (in vivo behaviour)
# Parameters: species or system rat
# test_conditions: 3.7 μmol/kg, recorded for 60 minutes, ± SEM
measurement_type: Locomotor activity
# answer = value followed by unit

Please review the following examples before continuing.
compound	experimental_value
CCCNC[C@@H]1COc2ccc(S(C)(=O)=O)cc2O1	10728 ± 1557 counts/60 min
CCCNC[C@H]1COc2c(F)cc(S(C)(=O)=O)cc2O1	12080 ± 1292 counts/60 min
CCCNCC1CCc2ccc(S(C)(=O)=O)cc2O1 (stereo not shown)	9551 ± 1284 counts/60 min
CCNC[C@H]1COc2c(F)cc(S(C)(=O)=O)cc2O1	6123 ± 710 counts/60 min

Record Locomotor activity per entry; entries follow.
1. CS(=O)(=O)c1ccc2c(c1)O[C@@H](CN1CCCCC1)CO2
2. CCCN(CCC)CC1COc2ccc(S(C)(=O)=O)cc2O1 (stereo not shown)

1: 7905 ± 656 counts/60 min; 2: 13645 ± 3301 counts/60 min

Query: Locomotor activity; subject: CCCNC[C@H]1COc2ccc(S(C)(=O)=O)cc2O1
10297 ± 860 counts/60 min
